- SYSTEM NAME: Serotonin (5-Hydroxytryptamine) 5-HT2A (Homo sapiens, UniProt P28223)
- Construct: purchased Eurofins Panlabs, Inc. 271650
- Sequence (P28223 whole entry): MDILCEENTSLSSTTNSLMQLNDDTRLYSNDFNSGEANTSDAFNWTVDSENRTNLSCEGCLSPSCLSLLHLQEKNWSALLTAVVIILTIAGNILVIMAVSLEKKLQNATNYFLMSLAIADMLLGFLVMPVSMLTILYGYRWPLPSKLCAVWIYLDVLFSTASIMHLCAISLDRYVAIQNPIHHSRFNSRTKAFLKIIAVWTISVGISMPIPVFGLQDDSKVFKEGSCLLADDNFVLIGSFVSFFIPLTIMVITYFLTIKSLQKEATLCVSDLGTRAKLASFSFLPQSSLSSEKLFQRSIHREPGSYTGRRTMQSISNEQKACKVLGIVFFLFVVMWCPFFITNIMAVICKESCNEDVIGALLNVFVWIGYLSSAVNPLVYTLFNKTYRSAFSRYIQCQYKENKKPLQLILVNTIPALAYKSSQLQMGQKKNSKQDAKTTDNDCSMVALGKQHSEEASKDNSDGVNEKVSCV
- EXPERIMENT NOTES: biochemical
- Type: binding
- SETUP CONDITIONS: IC50
MEASURED PARAMETER: IC50 (nM)
Reply numerically in nM, unit not repeated.

Sample answers from the record:
CN(C)CCc1c[nH]c2ccccc12 [N,N-Dimethyltryptamine pamoate] : 190
CN(C)CCc1c[nH]c2ccccc12.O=C(O)/C=C/C(=O)O [N,N-Dimethyltryptamine fumarate, reference compound] : 250

Next compound, IC50 to be filled in.
Request body: readout IC50, system Serotonin (5-Hydroxytryptamine) 5-HT2A (Homo sapiens, UniProt P28223), query CN(C)CCc1c[nH]c2ccccc12 [N,N-Dimethyltryptamine nicotinate] . Return the value. 600
